Origin of the recorded values: ChEMBL document CHEMBL4825677

Record form. Attribute: IC50. Fill in for each entry.
- Test Target: Amine oxidase [flavin-containing] A (Homo sapiens, UniProt P21397)
- Sequence (P21397 whole entry): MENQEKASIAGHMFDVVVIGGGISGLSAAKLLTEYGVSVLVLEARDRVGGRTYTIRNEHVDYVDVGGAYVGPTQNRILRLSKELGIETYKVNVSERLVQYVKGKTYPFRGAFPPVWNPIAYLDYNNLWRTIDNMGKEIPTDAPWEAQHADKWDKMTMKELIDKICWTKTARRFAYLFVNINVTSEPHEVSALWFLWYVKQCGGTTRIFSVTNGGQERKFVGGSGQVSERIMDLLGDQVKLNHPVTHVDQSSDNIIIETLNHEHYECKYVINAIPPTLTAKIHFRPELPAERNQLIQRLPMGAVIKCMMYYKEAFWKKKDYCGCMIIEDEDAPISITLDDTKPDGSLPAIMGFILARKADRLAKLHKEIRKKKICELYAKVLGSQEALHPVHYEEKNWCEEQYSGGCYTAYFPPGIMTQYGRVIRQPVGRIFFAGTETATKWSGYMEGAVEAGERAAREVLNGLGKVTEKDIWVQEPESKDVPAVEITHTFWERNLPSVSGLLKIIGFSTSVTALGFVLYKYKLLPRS
- Method: Inhibition of N-terminal FLAG-tagged human recombinant MAO-A expressed in baculovirus-infected Sf9 cells by […]

Completed entries (count: 2):
Qu. What does the record list as IC50 for CNCCCN(C)Cc1coc2cc(-c3ccc(C)cc3)c(-c3ccc(C#N)cc3)cc12 ?
Ans. > 20 µM

Qu. For Cc1ccc(-c2cc3occ(CN4CCC[C@H](N)C4)c3cc2-c2ccc(C#N)cc2)cc1 then?
Ans. > 20 µM

Further cases:
Qu. What does the record list as IC50 for Cc1ccc(-c2cc3occ(CNC4CCNC4)c3cc2-c2ccc(C#N)cc2)cc1 (stereo not drawn) ?
Ans. > 20 µM

###

Record form. Attribute: microsomal CLint. Fill in for each entry.
- Method: Metabolic stability in human liver microsome assessed as intrinsic clearance by LC-MS/MS analysis
- Format: ADME
- Particulars: liver microsomes, read-out: CLH
One number for each entry, in µL/min/mg.

Hi! Can you tell me microsomal CLint for each of these molecules?
1. CNCCCN(C)Cc1coc2cc(-c3ccc(C)cc3)c(-c3ccc(C#N)cc3)cc12
2. Cc1ccc(-c2cc3occ(CNC4CCNC4)c3cc2-c2ccc(C#N)cc2)cc1 (stereo not drawn)
3. Cc1ccc(-c2ncc(OCC3CCNCC3)cc2-c2ccc(C#N)cc2)cc1

Ans.
1: 138; 2: 14.6; 3: 13

###

- Test Target: Cytochrome P450 2C9 (Homo sapiens, UniProt P11712)
- Sequence (P11712 whole entry): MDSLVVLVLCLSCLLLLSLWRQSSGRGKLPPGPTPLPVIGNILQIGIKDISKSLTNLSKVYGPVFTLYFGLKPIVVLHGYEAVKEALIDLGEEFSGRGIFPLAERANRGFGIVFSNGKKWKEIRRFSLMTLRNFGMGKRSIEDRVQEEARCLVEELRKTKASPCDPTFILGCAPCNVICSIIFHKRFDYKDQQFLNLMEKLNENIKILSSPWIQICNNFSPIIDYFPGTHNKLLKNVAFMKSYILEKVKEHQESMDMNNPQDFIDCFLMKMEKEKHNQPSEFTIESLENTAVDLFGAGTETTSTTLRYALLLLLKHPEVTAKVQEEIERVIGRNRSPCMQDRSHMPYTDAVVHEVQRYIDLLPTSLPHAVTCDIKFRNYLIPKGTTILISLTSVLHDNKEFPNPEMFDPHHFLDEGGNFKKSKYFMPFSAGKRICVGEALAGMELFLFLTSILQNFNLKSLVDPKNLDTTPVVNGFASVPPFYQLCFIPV
- Method: Inhibition of CYP2C9 in human liver microsomes at 10 uM by LC-MS/MS analysis
- Format: ADME
Readout Kind: inhibition (INH)

Qu. What does the record list as inhibition (INH) for Cc1ccc(-c2cc3occ(CNC4CCNC4)c3cc2-c2ccc(C#N)cc2)cc1 (centres undefined) ?
Ans. Active

Qu. For Cc1ccc(-c2cc3occ(CN4CCC[C@H](N)C4)c3cc2-c2ccc(C#N)cc2)cc1 then?
Ans. Active

Qu. For CNCCCN(C)Cc1coc2cc(-c3ccc(C)cc3)c(-c3ccc(C#N)cc3)cc12 then?
Ans. Active

Qu. For Cc1ccc(-c2ncc(OCC3CCNCC3)cc2-c2ccc(C#N)cc2)cc1 then?
Ans. Active

###

- Tested on: MCF7
- Method: cells
- Particulars: Homo sapiens, MCF7, 72 h
- Description: Antiproliferative activity against human MCF7 cells assessed as reduction in cell viability incubated for 72 hrs by CCK8 assay
Values of IC50 strictly less than 3 µM map to Condition met, and values of at least 3 µM map to Condition not met.

Some solved cases for reference:
Qu. I wonder whether Cc1ccc(-c2cc3occ(CNCCN)c3cc2-c2ccc(C#N)cc2)cc1 has IC50 below 3 µM. Can you tell?
Ans. Condition not met

Qu. For Cc1ccc(-c2cc3occ(CNC4CCNC4)c3cc2-c2ccc(C#N)cc2)cc1 (stereo unspecified) then?
Ans. Condition not met

Qu. For Cc1ccc(-c2cc3occ(CNC4CCC(N)CC4)c3cc2-c2ccc(C#N)cc2)cc1 (stereo unspecified) then?
Ans. Condition not met

Further cases:
Qu. I wonder whether Cc1ccc(-c2ncc(OCC3CCNCC3)cc2-c2ccc(C#N)cc2)cc1 has IC50 below 3 µM. Can you tell?
Ans. Condition not met

Qu. For Cc1ccc(-c2cc3occ(CN4CCC[C@H](N)C4)c3cc2-c2ccc(C#N)cc2)cc1 then?
Ans. Condition met

Qu. For CNCCCN(C)Cc1coc2cc(-c3ccc(C)cc3)c(-c3ccc(C#N)cc3)cc12 then?
Ans. Condition not met

###

- Test system: MGC-803
- Method: Antiproliferative activity against human MGC-803 cells assessed as inhibition of cell growth by MTT assay
- Assay type: functional, cell-based
Readout Kind: IC50 (µM)
One number for each entry, in µM.

Qu. What does the record list as IC50 for O=C(O)[C@H]1O[C@@H](Oc2cc3oc(-c4ccccc4)cc(=O)c3c(O)c2O)[C@H](O)[C@@H](O)[C@@H]1O ?
Ans. 8.78

###

- Method: Microsomal stability in human liver microsomes assessed as parent compound remaining after 60 mins in absence of NADPH regenerating system by LC-MS/MS analysis
- Format: ADME, Microsome
- Particulars: read-out: Stabilty
Record form. Attribute: remaining at 1 h. Fill in for each entry.
One number for each entry, in %.

Completed entries (count: 3):
Qu. What does the record list as remaining at 1 h for Cc1ccc(-c2cc3occ(CNC4CCNC4)c3cc2-c2ccc(C#N)cc2)cc1 (centres undefined) ?
Ans. 56.7

Qu. For CNCCCN(C)Cc1coc2cc(-c3ccc(C)cc3)c(-c3ccc(C#N)cc3)cc12 then?
Ans. 55.8

Qu. For Cc1ccc(-c2cc3occ(CN4CCC[C@H](N)C4)c3cc2-c2ccc(C#N)cc2)cc1 then?
Ans. 76.1

Further cases:
Qu. What does the record list as remaining at 1 h for Cc1ccc(-c2ncc(OCC3CCNCC3)cc2-c2ccc(C#N)cc2)cc1 ?
Ans. 88.6

###

Record form. Attribute: CLint scaled. Fill in for each entry.
- Method: Metabolic stability in human liver assessed as intrinsic clearance by LC-MS/MS analysis
- Type: ADME, tissue-based
- Particulars: read-out: CLH
One number for each entry, in mL/min/kg.

Completed entries (count: 2):
Qu. What does the record list as CLint scaled for Cc1ccc(-c2cc3occ(CNC4CCNC4)c3cc2-c2ccc(C#N)cc2)cc1 (stereo not drawn) ?
Ans. 13.2

Qu. For Cc1ccc(-c2ncc(OCC3CCNCC3)cc2-c2ccc(C#N)cc2)cc1 then?
Ans. 11.7

Further cases:
Qu. What does the record list as CLint scaled for CNCCCN(C)Cc1coc2cc(-c3ccc(C)cc3)c(-c3ccc(C#N)cc3)cc12 ?
Ans. 124
